# TEST_SYSTEM: T1, EN2 (Engrailed-2) (UniProt P19622 P19622:1-333)
# T1 sequence: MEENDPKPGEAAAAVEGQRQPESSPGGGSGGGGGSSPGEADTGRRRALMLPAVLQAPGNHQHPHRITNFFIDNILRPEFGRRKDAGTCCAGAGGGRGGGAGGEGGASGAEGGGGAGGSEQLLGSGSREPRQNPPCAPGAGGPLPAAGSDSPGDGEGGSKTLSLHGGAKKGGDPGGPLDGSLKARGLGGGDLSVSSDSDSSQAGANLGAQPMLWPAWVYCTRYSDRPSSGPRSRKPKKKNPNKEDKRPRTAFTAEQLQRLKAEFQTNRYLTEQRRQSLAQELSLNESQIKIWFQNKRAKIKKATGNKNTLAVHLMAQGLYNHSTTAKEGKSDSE
# PROTOCOL_NOTES: FAM fluorescence of protein-bound aptamer
# PARTICULARS: tags: (His)6-tag, pET28a, E. coli BL21(DE3); label: FAM; hairpin, loop 8 bases, stem 20 bp
ASSAY_ENDPOINT: pKd
# pKd: negative log10 of molar concentration; output just the value

State its pKd for this binder: CGCAGTGTAATTACCTCGACCAGAAGGAGTCGAGGTAATTACACTGCG (structured_DNA) [hpDNA6] 7.21
